Target: Bone morphogenetic protein receptor type-2 (Homo sapiens, UniProt Q13873); note: in the data inactive means no Kd found up to 30 µM
Sequence (Q13873 whole entry): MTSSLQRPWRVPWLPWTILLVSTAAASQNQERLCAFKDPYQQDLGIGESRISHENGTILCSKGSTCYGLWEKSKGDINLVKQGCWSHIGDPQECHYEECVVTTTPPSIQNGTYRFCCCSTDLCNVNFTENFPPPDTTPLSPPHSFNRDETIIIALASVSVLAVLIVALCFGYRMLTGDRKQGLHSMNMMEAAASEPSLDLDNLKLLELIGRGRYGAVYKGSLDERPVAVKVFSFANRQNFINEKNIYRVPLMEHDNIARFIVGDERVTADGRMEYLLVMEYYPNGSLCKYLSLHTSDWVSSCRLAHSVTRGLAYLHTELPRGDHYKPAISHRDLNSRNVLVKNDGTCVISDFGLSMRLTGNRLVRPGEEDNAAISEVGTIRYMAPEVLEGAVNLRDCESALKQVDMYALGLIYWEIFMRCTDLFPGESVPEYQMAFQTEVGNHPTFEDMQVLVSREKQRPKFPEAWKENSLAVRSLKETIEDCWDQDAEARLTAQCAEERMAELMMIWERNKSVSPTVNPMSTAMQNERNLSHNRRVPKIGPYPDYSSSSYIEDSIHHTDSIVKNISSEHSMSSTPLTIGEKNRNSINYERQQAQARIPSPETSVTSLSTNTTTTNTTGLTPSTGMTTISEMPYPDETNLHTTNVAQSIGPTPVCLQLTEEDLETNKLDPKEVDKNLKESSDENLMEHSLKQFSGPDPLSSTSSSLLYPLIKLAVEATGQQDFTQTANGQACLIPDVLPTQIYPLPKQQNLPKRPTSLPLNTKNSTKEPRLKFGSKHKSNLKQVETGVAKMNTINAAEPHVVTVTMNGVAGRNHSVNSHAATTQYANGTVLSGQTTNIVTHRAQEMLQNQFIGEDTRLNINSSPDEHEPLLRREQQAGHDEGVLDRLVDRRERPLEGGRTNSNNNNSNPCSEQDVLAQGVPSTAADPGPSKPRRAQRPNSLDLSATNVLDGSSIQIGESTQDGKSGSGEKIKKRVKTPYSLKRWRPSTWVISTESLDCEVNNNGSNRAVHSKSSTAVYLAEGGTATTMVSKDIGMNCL
Structures can show the parent of a compound that is named as a salt. Calls of active or inactive are those of the source.
Quick reference: Kd of the listed items.

In the examples that follow, each entry is paired with its recorded Kd.
Compound: CC(=O)NCC(=O)N1[C@@H]2CC[C@H]1c1ccc(Nc3ncc(C(F)(F)F)c(NC4CCC4)n3)cc12 [PF-03814735]
Readout Kind: Kd
Readout Value: 0.008 µM
//
Compound: CCn1cc(-c2ccnc3[nH]c(-c4cccc(CN(C)C)c4)cc23)c(-c2ccc(NC(=O)N(C)C)cc2)n1 [GSK-1070916]
Readout Kind: Kd
Readout Value: > 30 µM (inactive)
//
Compound: CCS(=O)(=O)c1cccc(-c2cc(C(=O)NC3CCN(C)CC3)c(C)c3[nH]c4ncc(C)cc4c23)c1 [TAK-901]
Readout Kind: Kd
Readout Value: > 30 µM (inactive)
//
Compound: Cc1[nH]c(/C=C2\C(=O)Nc3ccccc32)c(C)c1CCC(=O)O [ORANTINIB]
Readout Kind: Kd
Readout Value: 0.019 µM (active)
//
Compound: CCn1c(C(=O)N(C2CC2)C2CC2)cc2c3c(ncn3C)c(Nc3cc(C)n(C)n3)nc21 [BMS-911543]
Readout Kind: Kd
Readout Value: > 30 µM (inactive)
//
Compound: CCS(=O)(=O)N1CCN(c2ccc(Nc3ncc(C(N)=O)c(NC4CC4)n3)cc2)CC1 [Cerdulatinib Hydrochloride]
Readout Kind: Kd
Readout Value: 4.86 µM (active)

For the record Cc1cc(Nc2ncnc3ccc(NC4=NC(C)(C)CO4)cc23)ccc1Oc1ccn2ncnc2c1 [TUCATINIB] , what value of Kd is listed for Bone morphogenetic protein receptor type-2 (Homo sapiens, UniProt Q13873)?
> 30 µM (inactive)

For the record CO[C@H]1C[C@@H]2CC[C@@H](C)[C@@](O)(O2)C(=O)C(=O)N2CCCC[C@H]2C(=O)O[C@H]([C@H](C)C[C@@H]2CC[C@@H](OP(C)(C)=O)[C@H](OC)C2)CC(=O)[C@H](C)/C=C(\C)[C@@H](O)[C@@H](OC)C(=O)[C@H](C)C[C@H](C)/C=C/C=C/C=C/1C [RIDAFOROLIMUS] , what value of Kd is listed for Bone morphogenetic protein receptor type-2 (Homo sapiens, UniProt Q13873)?
> 30 µM (inactive)

For the record CC(=O)c1cnc2ccc(-c3cc(Cl)c(O)c(Cl)c3)nc2c1N[C@H]1CC[C@H](CN(C)C)CC1 , what value of Kd is listed for Bone morphogenetic protein receptor type-2 (Homo sapiens, UniProt Q13873)?
> 30 µM (inactive)

For the record CCNC(=O)C#Cc1ccc2c(c1)NC(=O)/C2=C(\Nc1ccc(CN(C)C)cc1)c1ccccc1 , what value of Kd is listed for Bone morphogenetic protein receptor type-2 (Homo sapiens, UniProt Q13873)?
> 30 µM (inactive)
